- assay.target: T1, Anti-CD28 Fab (SEQ ID NOs: 696, 697)
- T1 construct: In the phage ELISA the Fab was biotinylated and captured on neutravidin coated plates
- T1 sequence (VH, as listed by the source, chain 1 of 2): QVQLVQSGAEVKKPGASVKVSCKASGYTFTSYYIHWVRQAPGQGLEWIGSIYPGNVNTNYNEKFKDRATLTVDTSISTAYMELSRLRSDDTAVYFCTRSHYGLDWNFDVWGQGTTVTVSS
- T1 sequence (VL, as listed by the source, chain 2 of 2): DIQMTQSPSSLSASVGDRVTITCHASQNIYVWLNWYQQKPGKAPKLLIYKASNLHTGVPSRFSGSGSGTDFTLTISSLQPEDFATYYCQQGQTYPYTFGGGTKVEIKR
- protocol.description: phage binding ELISA; biotinylated anti-CD28 Fab on neutravidin plate, clonal phage supernatant, anti-M13 HRP detection
Where no end group is shown, it is not given here.
Consider the following binders; for each one, report its Anti-CD28 Fab signal (phage binding ELISA).
Answers are plain numbers.

* YCEGHLAVYMEKCL (cysteine pairing not given here; also: displayed fused to phage pIII protein, fusion end and linker not given here, Tested as clonal phage supernatant; not shown: fused to the pIII filament protein of the bacteriophage) [Phage-923 (Peptide-87 library clone, SEQ ID NO: 1239)] | 1.65
* YCEGHSLMYMWKCL (cysteine pairing not given here; also: displayed fused to phage pIII protein, fusion end and linker not given here, Tested as clonal phage supernatant; not shown: fused to the pIII filament protein of the bacteriophage) [Phage-924 (Peptide-87 library clone, SEQ ID NO: 1240)] | 1.65
* YCAGHAAEYMTKCL (cysteine pairing not given here; also: displayed fused to phage pIII protein, fusion end and linker not given here, Tested as clonal phage supernatant; not shown: fused to the pIII filament protein of the bacteriophage) [Phage-925 (Peptide-87 library clone, SEQ ID NO: 1241)] | 1.65
* YCDGHSREYMNKCL (cysteine pairing not given here; also: fused to phage pIII, Tested as clonal phage supernatant; not shown: fused to the pIII filament protein of the bacteriophage) [Phage-919 (Peptide-87 library clone, SEQ ID NO: 1235)] | 1.66
* YCEGHIAEYMQKCL (cysteine pairing not given here; also: displayed fused to phage pIII protein, fusion end and linker not given here, Tested as clonal phage supernatant; not shown: fused to the pIII filament protein of the bacteriophage) [Phage-930 (Peptide-87 library clone, SEQ ID NO: 1246)] | 1.64

Dear colleague, could you send me Anti-CD28 Fab signal (phage binding ELISA) for each of the items below? Thanks.
1. YCAGHLPEFMDKCL (cysteine pairing not given here; also: fused to phage pIII, Tested as clonal phage supernatant; not shown: fused to the pIII filament protein of the bacteriophage) [Phage-918 (Peptide-87 library clone, SEQ ID NO: 1234)]
2. YCDGHAQEYRLKCL (cysteine pairing not given here; also: displayed fused to phage pIII protein, fusion end and linker not given here, Tested as clonal phage supernatant; not shown: fused to the pIII filament protein of the bacteriophage) [Phage-927 (Peptide-87 library clone, SEQ ID NO: 1243)]
3. YCDGHSVEYMEKCL (cysteine pairing not given here; also: displayed fused to phage pIII protein, fusion end and linker not given here, Tested as clonal phage supernatant; not shown: fused to the pIII filament protein of the bacteriophage) [Phage-926 (Peptide-87 library clone, SEQ ID NO: 1242)]

Result block:
1. 1.66
2. 1.65
3. 1.65

Dear colleague, could you send me Anti-CD28 Fab signal (phage binding ELISA) for each of the items below? Thanks.
1. YCDGHSLLYLSKCL (cysteine pairing not given here; also: fused to phage pIII, Tested as clonal phage supernatant; not shown: fused to the pIII filament protein of the bacteriophage) [Phage-922 (Peptide-87 library clone, SEQ ID NO: 1238)]
2. YCDGHSAEYLLKCL (cysteine pairing not given here; also: displayed fused to phage pIII protein, fusion end and linker not given here, Tested as clonal phage supernatant; not shown: fused to the pIII filament protein of the bacteriophage) [Phage-928 (Peptide-87 library clone, SEQ ID NO: 1244)]

Result block:
1: 1.65; 2: 1.65
